# experimental-target: cloned human or rodent CNS receptors, channels, and transporters (PDSP panel) (Homo sapiens, UniProt P35368)
# Construct: expressed in transfected cells
# Sequence (P35368 whole entry): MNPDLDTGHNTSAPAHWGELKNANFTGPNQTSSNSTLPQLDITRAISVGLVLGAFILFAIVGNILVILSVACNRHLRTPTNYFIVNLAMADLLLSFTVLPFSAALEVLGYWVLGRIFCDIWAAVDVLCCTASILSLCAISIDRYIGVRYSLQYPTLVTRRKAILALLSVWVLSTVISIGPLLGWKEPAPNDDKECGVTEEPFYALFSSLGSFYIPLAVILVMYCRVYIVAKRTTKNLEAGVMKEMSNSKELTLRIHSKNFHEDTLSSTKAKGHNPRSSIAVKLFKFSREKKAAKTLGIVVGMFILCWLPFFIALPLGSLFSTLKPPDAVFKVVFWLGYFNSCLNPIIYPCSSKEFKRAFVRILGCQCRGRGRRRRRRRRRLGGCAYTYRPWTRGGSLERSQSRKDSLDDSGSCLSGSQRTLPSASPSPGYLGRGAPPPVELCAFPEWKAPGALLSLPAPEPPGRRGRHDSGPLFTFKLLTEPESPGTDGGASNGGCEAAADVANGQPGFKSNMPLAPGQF
# experiment: PDSP GPCR panel primary binding assays at 10 μM
# assay-setup: Receptor Alpha1B; primary assay, 10 μM; mean of Inhibition 1-4
measured-parameter: Mean %

Examples with their reported Mean % follow.
O=c1oc2ccccc2cc1-c1cn2cc(Cc3ccc(F)cc3)sc2n1 [UNC10302680A, iMDK] | -1.03%
Cl.NC(=O)c1cnc(N[C@@H]2CCCC[C@@H]2N)nc1Nc1cccc(-n2nccn2)c1 [UNC10302682A, P505-15 (PRT06207 HCl)] | 55.06%
c1cn2cc(-c3ccc4cn[nH]c4c3)nc(Nc3ccc(N4CCOCC4)cc3)c2n1 [UNC10302678A, Entospletinib (GS-9973)] | -11.57%

Now consider the entry below.
# Mean % (molecule: CCCCNc1ncc2c(-c3ccc(CN4CCN(C)CC4)cc3)cn([C@H]3CC[C@H](O)CC3)c2n1 [UNC2025C, UNC2025] ) is 1.83%

###

# experimental-target: cloned human or rodent CNS receptors, channels, and transporters (PDSP panel) (Homo sapiens)
# Construct: expressed in transfected cells
# experiment: PDSP GPCR panel primary binding assays at 10 μM
# assay-setup: Receptor D5; primary assay, 10 μM
In this section, each of the compounds is paired with its reported Inhibition 3.
Reply numerically in %, unit not repeated.

O=c1oc2ccccc2cc1-c1cn2cc(Cc3ccc(F)cc3)sc2n1 [UNC10302680A, iMDK] | -1.22
CCCCNc1ncc2c(-c3ccc(CN4CCN(C)CC4)cc3)cn([C@H]3CC[C@H](O)CC3)c2n1 [UNC2025C, UNC2025] | 5.78
c1cn2cc(-c3ccc4cn[nH]c4c3)nc(Nc3ccc(N4CCOCC4)cc3)c2n1 [UNC10302678A, Entospletinib (GS-9973)] | 8.99

# Inhibition 3 (compound: Cl.NC(=O)c1cnc(N[C@@H]2CCCC[C@@H]2N)nc1Nc1cccc(-n2nccn2)c1 [UNC10302682A, P505-15 (PRT06207 HCl)] ) is 7.24

###

# experimental-target: cloned human or rodent CNS receptors, channels, and transporters (PDSP panel) (Homo sapiens)
# Construct: expressed in transfected cells
# experiment: PDSP GPCR panel primary binding assays at 10 μM
# assay-setup: 5-HT7A; primary assay, replicate 1
In this section, each of the compounds is paired with its reported Inhibition 1.
Reply numerically in %, unit not repeated.

Examples with their reported Inhibition 1 follow.
O=C(NC1CC1)C(=O)C(Cc1ccccc1)NC(=O)[C@H]1CCC(=O)N1Cc1ccccc1 (stereo partly shown) [UNC10302676A, ABT-957 (Alicapistat)] | 8.6
CNc1nc(C)nc(N[C@H]2CCC[C@@H](C(=O)NCc3ccc(C#N)cc3C(F)(F)F)C2)n1 [UNC10302679A, GSK2256294A] | 10.61

# Inhibition 1 (compound: CC(=O)N1CCC(NC(=O)NC23CC4CC(CC(C4)C2)C3)CC1 [UNC10302683A, AR9281] ) is 4.73

# Inhibition 1 (compound: CCC(=O)N1CCC(NC(=O)Nc2ccc(OC(F)(F)F)cc2)CC1 [UNC10302681A, TPPU] ) is 34.17
